From: PubChem BioAssay AID179

Catalogue of compounds with associated IC50
Tested on: CEM cells HIV-1 protection, formazan growth assay
Test: NCI AIDS Antiviral Assay
Details: measured here: growth of uninfected CEM cells
quantity: IC50

INSERT INTO measurements (compound, quantity, recorded_value) VALUES
  ('O=C(CSS(=O)(=O)O)c1ccccc1', 'IC50', '> 200 µM'),
  ('C=CCn1cc(C(=O)NC(=O)NCCCCCOC(=O)CCCCCCCCCCC(=O)OCCCCCNC(=O)NC(=O)c2cn(CC=C)c(=O)n(C)c2=O)c(=O)n(C)c1=O', 'IC50', '> 5.75 µM'),
  ('O=C(C[n+]1ccncc1)c1ccc2c(c1)CCCC2', 'IC50', '> 200 µM'),
  ('CCOC(=O)C1=C(NNC(=O)Cc2ccccc2)CSC1=Nc1ccccc1', 'IC50', '> 18.2 µM'),
  ('CCN=C1Nc2ccccc2-n2c(nn3nc4ccccc4c23)N1CC', 'IC50', '> 200 µM'),
  ('CCOC(=O)NC(=O)c1cn(CCSCCOC(=O)NCCCCCCNC(=O)OCCSCCn2cc(C(=O)NC(=O)OCC)c(=O)n(C)c2=O)c(=O)n(C)c1=O', 'IC50', '> 8.32 µM'),
  ('CCCCCC(/C=C/[C@@H]1[C@H]2CC(=O)O[C@H]2C[C@H]1N1CCOCC1)OC1CCCO1 (stereo partly drawn)', 'IC50', '> 316 µM'),
  ('CCOC(=O)C1=C(Nc2cccc(OC)c2)OCC1=O', 'IC50', '> 200 µM');
